# Measurement protocol: DPPH Spectrophotometer Assay (free radical scavenging)
# Format: biochemical
# Test conditions: comment on DPPH and NORA results of Table 5

# Compound, antioxidant properties in words
records = [
    ("Oc1cccc(O)c1 [Resorcinol]", "good responses"),
    ("Cc1ccc(C(C)C)c(O)c1 [Thymol]", "good responses"),
]

Origin of the recorded values: patent US20060153888A1
